Could you please report measured IC50 for the items listed next?
Tested on: NCI-H3255
MEASUREMENT_PROTOCOL: Cytotoxicity against human NCI-H3255 cells assessed as inhibition of cell growth incubated for 48 hrs by MTT assay
Type: functional, cell-based
CONDITION_DESCRIPTION: NCI-H3255, 48 h
Where a name gives a salt, the structure may show the parent alone.
Give bare numbers, in µM.

The cases that follow already have their IC50 on record.
C=C(C)C(=O)CC[C@@H](C)[C@H]1[C@H](O)C[C@@]2(C)[C@@H]3CC[C@H]4C(C)(C)[C@@H](O)CC[C@]4(O)CC3=CC[C@]12C    5.7
CC(C)=CCC[C@@H](C)[C@H]1[C@H](O)C[C@@]2(C)[C@@H]3CC[C@H]4C(C)(C)[C@@H](O)CC[C@]4(O)CC3=CC[C@]12C    9.4

Lab note: next compound to report on.
Per the records, this compound ( COc1cccc2c1C(=O)c1c(O)c3c(c(O)c1C2=O)C[C@@](O)(C(=O)CO)C[C@@H]3O[C@H]1C[C@H](N)[C@H](O)[C@H](C)O1 [DOXORUBICIN HYDROCHLORIDE] ) has IC50 equal to 1.5
